target system: T1, IL-2Rβ/γ on M07e cells (human, UniProt P14784 27-551; P31785 23-369)
T1 sequence (looked up) 1: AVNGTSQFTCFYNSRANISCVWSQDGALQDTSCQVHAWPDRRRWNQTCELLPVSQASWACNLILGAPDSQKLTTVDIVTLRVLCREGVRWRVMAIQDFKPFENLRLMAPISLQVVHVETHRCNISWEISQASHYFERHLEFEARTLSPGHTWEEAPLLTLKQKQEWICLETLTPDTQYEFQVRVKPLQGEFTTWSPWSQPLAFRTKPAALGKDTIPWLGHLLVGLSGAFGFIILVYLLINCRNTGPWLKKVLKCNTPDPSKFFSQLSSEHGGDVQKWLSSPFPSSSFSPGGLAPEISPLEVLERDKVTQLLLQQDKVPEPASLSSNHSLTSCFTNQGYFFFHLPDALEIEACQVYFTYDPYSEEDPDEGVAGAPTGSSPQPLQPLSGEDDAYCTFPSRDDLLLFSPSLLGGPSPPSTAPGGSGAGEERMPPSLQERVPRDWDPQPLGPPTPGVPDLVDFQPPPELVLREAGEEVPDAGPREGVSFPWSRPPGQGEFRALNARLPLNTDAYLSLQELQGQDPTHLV
T1 sequence (looked up) 2: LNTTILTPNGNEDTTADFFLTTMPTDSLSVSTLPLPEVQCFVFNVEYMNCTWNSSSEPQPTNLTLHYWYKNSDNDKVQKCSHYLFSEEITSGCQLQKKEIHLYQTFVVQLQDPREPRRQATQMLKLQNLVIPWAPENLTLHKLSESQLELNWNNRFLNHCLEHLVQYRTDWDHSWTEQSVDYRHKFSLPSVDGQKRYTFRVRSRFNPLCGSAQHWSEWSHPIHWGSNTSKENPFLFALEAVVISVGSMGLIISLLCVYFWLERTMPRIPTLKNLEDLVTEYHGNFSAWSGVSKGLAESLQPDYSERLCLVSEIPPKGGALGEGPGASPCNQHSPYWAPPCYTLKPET
experimental details: cell-based or functional assay
value type: M07e cell proliferation activity (%) at 111 nM
Respond numerically; units are % and should not be typed.

// query M07e cell proliferation activity (%) at 111 nM value for entry A-PC (Fc fusion, also called positive control molecule A-PC; PD-1-IL-2v; not shown: IgG1 hinge (C220S) + Fc Knob chain (L234A, L235A, S354C, T366W, EU); D356/L358 or E356/M358 ver; IgG1 hinge (C220S) + Fc Hole chain (L234A, L235A, Y349C, T366S, L368A, Y407V; may have H435R, Y436F; EU)) chain (part 1 of 2): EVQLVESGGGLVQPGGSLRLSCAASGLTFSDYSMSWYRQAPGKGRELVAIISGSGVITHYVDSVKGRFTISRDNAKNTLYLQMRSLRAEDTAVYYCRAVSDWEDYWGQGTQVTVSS chain (part 2 of 2): GGGGSGGGGSGGGGSAPASSSTKKTQLQLEHLLLDLQMILQGISNYKNPKLTRMLTAKFYMPKKATELKHLQCLEEELKPLEEVLQGAQSKNFHLRPRDLISNINVIVLELKGSETTFMCEYADETATIVEFLNRWITFAQSIISTLT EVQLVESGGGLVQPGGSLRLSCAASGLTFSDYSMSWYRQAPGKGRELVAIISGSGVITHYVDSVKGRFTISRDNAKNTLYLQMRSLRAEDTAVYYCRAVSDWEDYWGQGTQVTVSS
87.2

What measured M07e cell proliferation activity (%) at 111 nM goes with A-D20A (Fc fusion, also called PD-1-IL-2v (D20A); not shown: IgG1 hinge (C220S) + Fc Knob chain (L234A, L235A, S354C, T366W, EU); D356/L358 or E356/M358 ver; IgG1 hinge (C220S) + Fc Hole chain (L234A, L235A, Y349C, T366S, L368A, Y407V; may have H435R, Y436F; EU)) chain (part 1 of 2): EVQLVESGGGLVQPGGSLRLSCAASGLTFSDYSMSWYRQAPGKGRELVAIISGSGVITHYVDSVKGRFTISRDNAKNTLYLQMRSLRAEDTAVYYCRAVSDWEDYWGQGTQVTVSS chain (part 2 of 2): GGGGSGGGGSGGGGSAPASSSTKKTQLQLEHLLLALQMILQGISNYKNPKLTRMLTAKFYMPKKATELKHLQCLEEELKPLEEVLQGAQSKNFHLRPRDLISNINVIVLELKGSETTFMCEYADETATIVEFLNRWITFAQSIISTLT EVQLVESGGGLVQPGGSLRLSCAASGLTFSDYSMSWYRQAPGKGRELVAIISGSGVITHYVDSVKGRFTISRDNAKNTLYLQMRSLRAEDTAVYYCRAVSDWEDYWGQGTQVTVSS ?
-2.4

For A-N88D (Fc fusion, also called PD-1-IL-2v (N88D); not shown: IgG1 hinge (C220S) + Fc Knob chain (L234A, L235A, S354C, T366W, EU); D356/L358 or E356/M358 ver; IgG1 hinge (C220S) + Fc Hole chain (L234A, L235A, Y349C, T366S, L368A, Y407V; may have H435R, Y436F; EU)) chain (part 1 of 2): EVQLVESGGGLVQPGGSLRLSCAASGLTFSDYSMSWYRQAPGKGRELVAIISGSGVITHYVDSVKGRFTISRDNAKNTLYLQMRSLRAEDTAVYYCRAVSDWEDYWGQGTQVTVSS chain (part 2 of 2): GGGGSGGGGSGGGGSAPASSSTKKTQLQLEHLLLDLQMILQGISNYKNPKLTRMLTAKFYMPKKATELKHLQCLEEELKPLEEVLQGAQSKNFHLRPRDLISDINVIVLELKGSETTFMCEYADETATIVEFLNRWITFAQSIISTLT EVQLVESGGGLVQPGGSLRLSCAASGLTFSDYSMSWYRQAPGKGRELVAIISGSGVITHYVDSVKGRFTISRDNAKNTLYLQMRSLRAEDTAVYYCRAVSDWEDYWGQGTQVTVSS , what is its reported M07e cell proliferation activity (%) at 111 nM?
-1.8

Looking for the measured M07e cell proliferation activity (%) at 111 nM of PEGylated IL-2 mutant (PEG-IL-2v) (ligand, PEGylated (site not stated)) APASSSTKKTQLQLEHLLLDLQMILQGISNYKNPKLTRMLTAKFYMPKKATELKHLQCLEEELKPLEEVLQGAQSKNFHLRPRDLISNINVIVLELKGSETTFMCEYADETATIVEFLNRWITFAQSIISTLT , can you help?
88.3
